# System: IL-2 production
# assay details: Inhibition of IL-2 production in PHA-activated Jurkat cells (ELISA)
# Type: cell-based
# condition info: Homo sapiens, Jurkat, 20 h, PHA 2.5 μg/mL, IL-2 ELISA
Some compounds, each annotated with its measured IC50.

Please report the recorded IC50 for `COc1cccc2c1oc(=O)c1nc(NC(=O)c3c(F)cccc3F)sc12` .
> 1000 nM

----------
# Tested on: IL-2 production
# assay details: Inhibition of IL-2 production in PHA-activated Jurkat cells (ELISA)
# Format: cell-based
# condition info: Homo sapiens, Jurkat, 20 h, PHA 2.5 μg/mL, IL-2 ELISA
# Method: Jurkat cells were placed in a 96 well plate (0.5 million cells per well in 1% FBS medium) then a test compound of this invention was added at different concentrations. After 10 minutes, the cells were activated with PHA (final concentration 2.5 μg/mL) and incubated for 20 hours at 37° C. under CO2. The final volume was 200 μL. Following incubation, the cells were centrifuged and the supernatants collected and stored at −70° C. prior to assaying for IL-2 production. […]
pIC50: −log10 of the molar value.
In this section, each of the molecules is paired with its reported pIC50.

Take a look at these entries with their results.
# smiles code, readout kind, result
records = [
    ("C/N=C(/Nc1c(F)cccc1F)c1nc2c(s1)-c1cc(OC)ccc1CCC2", "pIC50", "< 6.00"),
    ("COc1ccc2c(c1)-c1sc(NC(=O)c3ccncc3F)nc1CCC2", "pIC50", "< 6.00"),
    ("COc1ccc2c(c1)-c1sc(NC(=O)c3ccncc3F)nc1CCO2", "pIC50", "< 6.00"),
    ("O=C(Nc1nc2c(s1)-c1ccc(-c3nnn[nH]3)cc1CCC2)c1c(F)cccc1F", "pIC50", "< 6.00"),
    ("O=C(Nc1c(F)cccc1F)c1nc2c(s1)-c1cc(-c3nccs3)ccc1CCC2", "pIC50", "≥ 7.52"),
]

Which pIC50 reading was recorded for the molecule `COc1cc(-c2ccc3c(c2)-c2sc(C(=O)Nc4c(F)cccc4F)nc2CCC3)ccn1` ?
6.60 to 7.00

Tell me the measured pIC50 of `O=C(Nc1nc2c(=O)oc3ccc(O)cc3c2s1)c1c(F)cccc1F` , please.
< 6.00

Record request: pIC50 value, item `Cn1nnc(-c2ccc3c(c2)-c2sc(C(=O)Nc4c(F)cccc4F)nc2CCC3)n1`
6.30 to 6.60

// query pIC50 value for entry `O=C(Nc1nc2c(s1)-c1cccc(-c3nccs3)c1CCC2)c1c(F)cccc1F`
6.60 to 7.00
